tested on: HCT-15
// NB: equality with 20 µM counts as Criterion not met; only GI50 strictly below is Criterion met

Solved entries (count: 4):
compound	cat
O=C1C2[C@@H](C(=O)N1c1ccc(Br)cc1)C13C(=CC2([N+](=O)[O-])[C@@H]2C(=O)N(c4ccc(Br)cc4)C(=O)[C@@H]21)c1ccccc1N3c1ccccc1 (stereo not given in full)	Criterion not met
C=C1C(=O)O[C@H]2C/C(C)=C/CC/C(C)=C/CC[C@@](C)(O)[C@@H](I)C[C@@H]12	Criterion met
Cc1ccc(NP(=O)(Oc2ccccc2)N(CCCl)CCCl)cc1 (stereo not given)	Criterion not met
c1ccc(SC(CCCCOC2CCCCO2)Sc2ccccc2)cc1 (stereo not given)	Criterion not met

# input Here's an entry: COC1OC2COC(c3ccccc3)OC2C(O)C1Br (stereo not given) . Is its GI50 below 20 µM?
# output Criterion not met

----------
test system: DMS-114; assay: NCI tumour cell line growth inhibition, 48 h
Activity calls are given as the source filed them. Cut-off read from the data, not from the text of the source: active = GI50 up to about 1.1 µM and inactive = higher.
Tick one outcome: active, inactive

// below: answered compounds
compound	cat
C/C=C1/C(=O)O[C@]23C=C[C@@H]4C(C(=O)OC)=CO[C@H](O[C@@H]12)[C@@H]43 [PLUMERICIN]	inactive
CN(C)CCNC(=O)c1cc([N+](=O)[O-])cc2ccc(-c3ccccc3)nc12	inactive
CC1=CC2CCC1(C)C/C2=C(/C)OC=O (stereo not drawn)	inactive
CCOC(=O)NC(=O)c1cn(CCCCCCCCCCC(=O)N2CCN(CCn3cc(C(=O)NC(=O)OCC)c(=O)[nH]c3=O)CC2)c(=O)[nH]c1=O	inactive
O=C(Nc1c(O)[nH]c(=S)[nH]c1=O)c1ccc2ccccc2n1	inactive
ClC1c2ccccc2C2(c3ccccc3)OOC1(c1ccccc1)O2 (stereo not drawn)	active
COc1ccc(/C=C/C(=O)C(C)C)cc1	inactive
CC(=O)NC1=C(NCC(C)C)C(=O)c2ccccc2C1=O	inactive

# input Give the logged outcome of this assay for the following compound: `CC(=O)CC(=O)/C=C/c1cccs1`
# output inactive

# input What is the recorded call for this compound in the test? `Cc1ccccc1-c1cc(=O)c2cc(C)c(C)c(C(=O)O)c2o1`
# output inactive

# input Just curious, what result did `CCN(CC)CCCNc1ccc2nnn3c4ccc(O)cc4c(=O)c1c23` get here?
# output inactive

# input Any idea what this test logged for `NCCCSCC(=O)O` ?
# output inactive

# input How was `O=c1cc(-c2ccccc2)oc2cc(OCCCCCCCCCCOc3ccc4c(=O)cc(-c5ccccc5)oc4c3)ccc12` classified in this test?
# output inactive

----------
system: SK-MEL-5; assay: NCI tumour cell line growth inhibition, 48 h
Active and inactive are the calls of the source. No stated cut-off is given here; in the data, active = GI50 up to about 1.1 µM and inactive = higher. Square brackets hold non-standard residues; d marks the D form. Peptide text beside a SMILES is read from it. * marks the point of attachment. ξ: configuration not given here. ξW = NC(Cc1c[nH]c2ccccc12)C(=O)O; X29 = O=C(O)[C@H]1CCC[C@H]1N*; ξF = NC(Cc1ccccc1)C(=O)O; Boc = CC(C)(C)OC(=O)*; ξK = NCCCCC(N)C(=O)O; ξT = CC(O)C(N)C(=O)O; tBu = CC(C)(C)*
GI50 values by entry

Completed entries (count: 5):
compound	target-or-test-system	assay-metric	value
C[C@]12CC(C=O)C(=O)C(O)=C1CC[C@@H]1C2CC[C@@]2(C)C1CC[C@]2(C)O (stereo not given in full)	SK-MEL-5	GI50	17.6 µM (inactive)
O=c1[nH]c(=O)n(C2OC3COC2C3O)cc1F (stereo not given)	SK-MEL-5	GI50	> 100 µM (inactive)
CC(OC(C)(C)C)C(NC(=O)C(CCCCNC(=O)OC(C)(C)C)NC(=O)C(Cc1c[nH]c2ccccc12)NC(=O)C(N)Cc1ccccc1)C(=O)NC(Cc1ccccc1)C(=O)N[C@@H]1CCC[C@@H]1C(=O)O (stereo not given in full) (H-[ξF][ξW][ξK](Boc)[ξT](tBu)[ξF]-X29)	SK-MEL-5	GI50	11.1 µM (inactive)
O=C(Nc1c(O)[nH]c(=S)[nH]c1=O)c1ccc2ccccc2n1	SK-MEL-5	GI50	> 100 µM (inactive)
COc1cc2cnc3c4ccccc4ccc3c2cc1OC	SK-MEL-5	GI50	> 100 µM (inactive)

# input Notebook entry, SK-MEL-5 assay: GI50 of `CC(C)N1CCC2(CC1)NNc1ncccc1-n1cccc12` = ?
# output > 100 µM (inactive)

# input What GI50 appears in the records for this compound with SK-MEL-5? O=c1c2ccccc2nc(-c2ccccc2)n1NCC1(O)OCC(O)C(O)C1O (stereo not given)
# output 48 µM (inactive)

# input Param readout= GI50; system= SK-MEL-5; entry= COc1ccc(N2C(Cl)C(=O)C2c2c[nH]c3ccccc23)cc1 (stereo not given) ; returns value.
# output > 100 µM (inactive)

# input Find the measured GI50: item `NC1CCCCC1.O=P(O)(O)C1(P(=O)(O)O)CC1` , target or system SK-MEL-5.
# output > 100 µM (inactive)
